# EXPERIMENTAL_DETAILS: Brain pharmacokinetics of tianeptine and its 5-carbon metabolite (7i) in mice
# TEST_PARAMETERS: male, C57BL/6, mouse, in vivo, ip, 30 mg/kg
MEASURED_PARAMETER: Cmax (ng/g)
Write the value in ng/g as a bare number.

Reported Cmax for CN1c2ccccc2C(NCCCCC(=O)O)c2ccc(Cl)cc2S1(=O)=O.Cl (stereo not shown) : what is it?
2860

====

# EXPERIMENTAL_DETAILS: Brain pharmacokinetics of tianeptine and its 5-carbon metabolite (7i) in mice
# TEST_PARAMETERS: male, C57BL/6, mouse, in vivo, ip, 30 mg/kg
MEASURED_PARAMETER: Tmax (min)
Write the value in min as a bare number.

Reported Tmax for CN1c2ccccc2C(NCCCCC(=O)O)c2ccc(Cl)cc2S1(=O)=O.Cl (stereo not shown) [Compound 7i] : what is it?
30

====

# TEST_SYSTEM: human delta-opioid receptor (DOR) (Homo sapiens, UniProt P41143)
# Sequence (P41143 whole entry): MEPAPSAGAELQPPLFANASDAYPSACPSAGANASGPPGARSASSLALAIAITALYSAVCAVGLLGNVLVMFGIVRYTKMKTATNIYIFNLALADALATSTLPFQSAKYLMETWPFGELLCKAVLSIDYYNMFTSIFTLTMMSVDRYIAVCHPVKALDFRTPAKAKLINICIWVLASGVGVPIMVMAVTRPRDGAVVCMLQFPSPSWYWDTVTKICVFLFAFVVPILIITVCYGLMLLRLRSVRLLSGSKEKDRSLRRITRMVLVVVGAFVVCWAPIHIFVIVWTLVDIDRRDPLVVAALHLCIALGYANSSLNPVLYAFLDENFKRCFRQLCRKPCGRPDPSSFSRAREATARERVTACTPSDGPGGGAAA
# EXPERIMENTAL_DETAILS: BRET assay measuring G protein activation, agonist activity at human DOR
pEC50: −log10 of the molar value. Structures can show the parent of a compound that is named as a salt.
MEASURED_PARAMETER: pEC50

Reported pEC50 for CN1c2ccccc2C(NCCCCC(=O)O)c2ccc(Cl)cc2S1(=O)=O.Cl (stereo not shown) [Compound 7i, hydrochloride salt] : what is it?
< 5.00

Again, but for CN1c2ccccc2C(NCCCCCC(=O)O)c2ccc(Br)cc2S1(=O)=O (stereo not shown) [Compound 7f, hydrochloride salt]
4.63

Again, but for CCOC(=O)CCCCNC1c2ccccc2N(C)S(=O)(=O)c2cc(Cl)ccc21 (stereo not shown)
< 5.00

Again, but for CN1c2ccccc2C(NCCCCCC(=O)O)c2ccc(I)cc2S1(=O)=O (stereo not shown) [Compound 7g, hydrochloride salt]
5.29

Again, but for CN1c2ccccc2C(NCCC(=O)O)c2ccc(Cl)cc2S1(=O)=O (stereo not shown) [Compound 7h, hydrochloride salt]
< 5.00

Again, but for CN1c2ccccc2C(NCCCCC(=O)O)c2ccc(Br)cc2S1(=O)=O (stereo not shown) [Compound 7d, hydrochloride salt]
< 5.00

Again, but for CCOC(=O)CCCNC1c2ccccc2N(C)S(=O)(=O)c2cc(Br)ccc21 (stereo not shown)
< 5.00

Again, but for CN1c2ccccc2C(NCCCCC(=O)O)c2ccc(I)cc2S1(=O)=O (stereo not shown) [Compound 7e, hydrochloride salt]
5.05

Again, but for CCOC(=O)CCNC1c2ccccc2N(C)S(=O)(=O)c2cc(I)ccc21 (stereo not shown)
< 5.00

Again, but for CCOC(=O)CCNC1c2ccccc2N(C)S(=O)(=O)c2cc(Br)ccc21 (stereo not shown)
< 5.00

====

# TEST_SYSTEM: UniProtKB P35372
# Sequence (P35372 whole entry): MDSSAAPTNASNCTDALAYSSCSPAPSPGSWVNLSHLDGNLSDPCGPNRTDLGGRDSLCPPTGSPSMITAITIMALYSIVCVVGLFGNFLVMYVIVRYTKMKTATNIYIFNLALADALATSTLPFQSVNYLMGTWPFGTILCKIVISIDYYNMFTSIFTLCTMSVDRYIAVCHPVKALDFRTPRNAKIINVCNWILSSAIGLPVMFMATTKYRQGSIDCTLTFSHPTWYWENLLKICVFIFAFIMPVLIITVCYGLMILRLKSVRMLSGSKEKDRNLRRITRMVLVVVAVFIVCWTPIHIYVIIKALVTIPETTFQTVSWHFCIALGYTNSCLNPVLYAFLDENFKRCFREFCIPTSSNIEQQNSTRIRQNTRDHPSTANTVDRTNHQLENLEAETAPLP
# EXPERIMENTAL_DETAILS: BRET assay measuring G protein activation, agonist activity at human MOR
Where a name gives a salt, the structure may show the parent alone.
MEASURED_PARAMETER: pEC50
When answering, recall that pEC50 equals minus log10 of the concentration in mol/L, and write that number alone.

Reported pEC50 for CN1c2ccccc2C(NCCC(=O)O)c2ccc(Cl)cc2S1(=O)=O (stereo not shown) [Compound 7h, hydrochloride salt] : what is it?
4.60

Again, but for CCOC(=O)CCCCNC1c2ccccc2N(C)S(=O)(=O)c2cc(Cl)ccc21 (stereo not shown)
6.27

Again, but for CN1c2ccccc2C(NCCCCC(=O)O)c2ccc(Br)cc2S1(=O)=O (stereo not shown) [Compound 7d, hydrochloride salt]
6.39

Again, but for CCOC(=O)CCNC1c2ccccc2N(C)S(=O)(=O)c2cc(Br)ccc21 (stereo not shown)
5.23
